Test system: IGROV1 ovarian
Test: NCI-60 one-dose screen, 48 h (100 = growth as untreated, 0 = no growth, -100 = all killed)
Conditions: 10 µM unless noted
About 83,000 compounds went through this panel and 20% of them were active in at least one assay; those are over-represented in the sample as a whole.

COMPOUND	growth, %
CCOC(=O)c1c(C)nc2c(c1N)/C(=C/c1cc(OC)c(OC)c(OC)c1)C(=O)N2c1ccc(OC)cc1	33.6
CCCCCCNc1cc(C)nc2ccc(OC)cc12	55.5
COc1cc(NC(=O)c2cccc(-c3cc(=O)c4c(OC)c(OC)c(OC)cc4o3)c2)cc(OC)c1OC	51.8
CCN(CC)CCNc1ccc(C)c2sc3cc(C)ccc3c(=O)c12	52.4
O=C1Nc2ccccc2/C1=N/N=C/c1ccsc1	101
CCOC(=O)c1sc(-c2ccc(OS(=O)(=O)c3ccc(C(C)(C)C)cc3)c(C=O)c2)nc1C	32
C=C(CNCCc1ccc(O)cc1)[C@@H]1CC[C@]2(COC3CCCCO3)CC[C@]3(C)[C@H](CC[C@@H]4[C@@]5(C)CCC(NCCO)C(C)(C)[C@@H]5CC[C@]43C)[C@@H]12 (stereo partly drawn)	-83.9
COc1cc(-c2cc(-c3ccc(Nc4nc(Nc5ccccc5)nc(Nc5ccc(Cl)cc5)n4)cc3)nc(N)n2)cc(OC)c1OC	39.2
Oc1ccccc1-c1nc2ccccn2c1NCCN1CCOCC1	103
Clc1ccc(/C=C/c2nc(Nc3ccc(Cl)cc3)c3ccccc3n2)cc1	78.2
O=C(Nc1ccccc1Cl)OCCN1CCOCC1	107
CN(C)CCN1C(=O)c2cccc3c(-c4ccc(-c5nc6c7ccccc7c7ccccc7c6[nH]5)cc4)ccc(c23)C1=O	96.3
Cc1ccc(O)c(C(=O)c2ccccc2Cl)c1	102
C=C1c2c(C)nn(-c3ccc(O)cc3)c2N(C)C23C[C@@H]1C1(C)c4c(C)nn(-c5ccc(O)cc5)c4N(C)C(C)(C[C@H]12)C3 (stereo partly drawn)	63.2
CCOC(=O)c1nnn(C(Cc2ccccc2Cl)C(=O)OCC)c1C (stereo not drawn)	112
C=C1C(=O)O[C@H]2[C@H]1CC/C(COC(=O)/C=C\C(=O)NCc1ccc(Cn3c(=O)sn(-c4ccc(Cl)cc4)c3=O)cc1)=C\CC[C@@]1(C)O[C@@H]21	-99.5
Fc1ccc(Nc2nc3nonc3nc2Nc2ccc(F)cc2)cc1	32.6
C=C1C(=O)O[C@H]2[C@H]1CC/C(COC(=O)NCc1ccc(Cn3c(=O)sn(CCCCl)c3=O)cc1)=C\CC[C@@]1(C)O[C@@H]21	-36.3
